- subjectOfTest: Androgen receptor (Homo sapiens) (UniProt P10275)
- Sequence (P10275 whole entry, the tested form may be a part): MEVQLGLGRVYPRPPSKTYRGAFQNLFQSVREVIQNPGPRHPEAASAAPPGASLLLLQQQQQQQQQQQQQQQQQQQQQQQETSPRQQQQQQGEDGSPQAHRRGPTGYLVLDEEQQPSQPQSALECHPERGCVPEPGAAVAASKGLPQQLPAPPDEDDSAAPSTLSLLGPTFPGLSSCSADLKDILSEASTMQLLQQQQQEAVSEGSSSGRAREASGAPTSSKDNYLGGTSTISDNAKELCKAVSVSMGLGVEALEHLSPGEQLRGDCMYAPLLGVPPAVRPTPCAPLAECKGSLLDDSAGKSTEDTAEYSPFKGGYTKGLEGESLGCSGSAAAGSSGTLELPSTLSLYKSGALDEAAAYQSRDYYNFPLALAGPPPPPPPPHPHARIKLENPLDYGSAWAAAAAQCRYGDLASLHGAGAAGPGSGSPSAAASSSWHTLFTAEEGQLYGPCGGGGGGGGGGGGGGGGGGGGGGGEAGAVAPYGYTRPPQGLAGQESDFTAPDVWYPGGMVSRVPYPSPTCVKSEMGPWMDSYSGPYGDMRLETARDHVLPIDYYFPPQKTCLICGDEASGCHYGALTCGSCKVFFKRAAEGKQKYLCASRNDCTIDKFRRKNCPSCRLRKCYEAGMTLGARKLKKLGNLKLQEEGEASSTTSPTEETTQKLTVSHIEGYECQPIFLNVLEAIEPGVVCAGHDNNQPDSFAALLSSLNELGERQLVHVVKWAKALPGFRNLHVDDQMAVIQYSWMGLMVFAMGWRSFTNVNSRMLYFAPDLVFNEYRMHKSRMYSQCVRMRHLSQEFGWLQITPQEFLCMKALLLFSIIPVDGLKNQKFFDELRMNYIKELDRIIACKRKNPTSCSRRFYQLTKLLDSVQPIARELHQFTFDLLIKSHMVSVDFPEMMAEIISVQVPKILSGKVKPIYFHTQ
- assayRemarks: Binding affinity to androgen receptor LBD (unknown origin) at 10 uM incubated for 4 hrs under dark by fluorescence polarization based binding assay relative to R1881
propertyName: Activity (%)
A number alone suffices; assume %.

Look up Activity for this molecule: "CC1(C)C(=O)N(c2ccc(C#N)c(C(F)(F)F)c2)C(=O)N1CCCn1cc(COCCCOC(=O)CC23CC4CC(CC(C4)C2)C3)nn1"
24.3

Look up Activity for this molecule: "CC1(C)C(=O)N(c2ccc(C#N)c(C(F)(F)F)c2)C(=S)N1Cc1cn(CCOCCOCCOC(=O)CC23CC4CC(CC(C4)C2)C3)nn1"
35.1

Look up Activity for this molecule: "CC1(C)C(=O)N(c2ccc(C#N)c(C(F)(F)F)c2)C(=S)N1Cc1ccc(OCCOCCOCCOCCOC(=O)CC23CC4CC(CC(C4)C2)C3)cc1"
35.8

Look up Activity for this molecule: "CC1(C)C(=O)N(c2ccc(C#N)c(C(F)(F)F)c2)C(=S)N1CCCCCCn1cc(COCCOCCOC(=O)CC23CC4CC(CC(C4)C2)C3)nn1"
32.3

Look up Activity for this molecule: "CC1(C)C(=O)N(c2ccc(C#N)c(C(F)(F)F)c2)C(=O)N1CCCn1cc(COCCOCCOCCOCCOC(=O)CC23CC4CC(CC(C4)C2)C3)nn1"
47

Look up Activity for this molecule: "CC1(C)C(=O)N(c2ccc(C#N)c(C(F)(F)F)c2)C(=S)N1Cc1ccc(OCCOCCOC(=O)CC23CC4CC(CC(C4)C2)C3)cc1"
34.2

Look up Activity for this molecule: "CC1(C)C(=O)N(c2ccc(C#N)c(C(F)(F)F)c2)C(=O)N1Cc1ccc(-n2cc(COCCOCCOC(=O)CC34CC5CC(CC(C5)C3)C4)nn2)cc1"
36.7

Look up Activity for this molecule: "CC1(C)C(=O)N(c2ccc(C#N)c(C(F)(F)F)c2)C(=O)N1Cc1cn(CCCOC(=O)CC23CC4CC(CC(C4)C2)C3)nn1"
43.4

Look up Activity for this molecule: "CC1(C)C(=O)N(c2ccc(C#N)c(C(F)(F)F)c2)C(=S)N1Cc1cn(CCOCCOC(=O)CC23CC4CC(CC(C4)C2)C3)nn1"
22.2
